# ASSAY: ATG_Oct_MLP_CIS: Attagene CIS-FACTORIAL HepG2 Assay for human Octamer-Binding Transcription Factor (Oct) (AID 2282993)
# CONDITION_SUMMARY: HepG2 Attagene cis-factorial Oct reporter, mRNA; actives raise or lower the signal
The source made the active and inactive calls. Rule for the calls: active = hit-call score of the fitted dose curve at least 0.9, where 1 is the maximum; inactive = score below 0.9.
Possible outcomes: 1.0 (active), 0.0 (inactive)

[
  {
    "COMPOUND": "CNS(=O)(=O)c1cc(C(=O)N2CCC(CCN3C4CCC3CC(n3c(C)nc5ccccc53)C4)(c3cccc(F)c3)CC2)c(Cl)cc1F (configuration not stated)",
    "CLASS_NAME": 0.0
  },
  {
    "COMPOUND": "CC(C)=CCC/C(C)=C\\CO",
    "CLASS_NAME": 0.0
  },
  {
    "COMPOUND": "CC/C(=C\\C(=N/O)C(N)=O)C(C)[N+](=O)[O-] (configuration not stated)",
    "CLASS_NAME": 0.0
  },
  {
    "COMPOUND": "O=C1CCCCCN1",
    "CLASS_NAME": 0.0
  },
  {
    "COMPOUND": "CCOC(=O)CC(CC(=O)OCC)(OC(C)=O)C(=O)OCC",
    "CLASS_NAME": 0.0
  },
  {
    "COMPOUND": "Cc1c(-c2cccnc2)c2ccccc2n1CCCCC(=O)O",
    "CLASS_NAME": 0.0
  },
  {
    "COMPOUND": "CC[C@H](C)C(=O)O[C@H]1C[C@@H](C)C=C2C=C[C@H](C)[C@H](CC[C@@H]3C[C@@H](O)CC(=O)O3)[C@H]21",
    "CLASS_NAME": 1.0
  }
]

----------
# ASSAY: ATG_TCF_b_cat_CIS: Attagene CIS-FACTORIAL HepG2 Assay for human T-Cell-Factor with beta-catenin (TCF/b-cat) (AID 2282965)
# CONDITION_SUMMARY: HepG2 TCF/beta-catenin cis-reporter transcription, actives raise or lower the signal
Activity calls are given as the source filed them. How the source made its calls: active means hit-call score of the fitted dose curve at least 0.9, where 1 is the maximum; inactive means score below 0.9.
Classes used: True for active, False for inactive

[
  {
    "MOLECULE": "O=C1CCCCCN1",
    "CLASS_NAME": "False"
  },
  {
    "MOLECULE": "Cc1ccc(C)c(O)c1",
    "CLASS_NAME": "False"
  },
  {
    "MOLECULE": "CC(C)(O)c1coc(S(=O)(=O)NC(=O)Nc2c3c(cc4c2CCC4)CCC3)c1",
    "CLASS_NAME": "False"
  },
  {
    "MOLECULE": "CN(C)c1ccc(N=NS(=O)(=O)O)cc1",
    "CLASS_NAME": "False"
  },
  {
    "MOLECULE": "CC(=O)OCCC(C)C",
    "CLASS_NAME": "False"
  },
  {
    "MOLECULE": "O=C(NS(=O)(=O)/C=C/c1ccccc1)c1ccc(F)cc1Cl",
    "CLASS_NAME": "False"
  },
  {
    "MOLECULE": "CCCCCCCCCCCCCCCO",
    "CLASS_NAME": "False"
  },
  {
    "MOLECULE": "C=CC(=C)CCC=C(C)C",
    "CLASS_NAME": "False"
  },
  {
    "MOLECULE": "CCNc1ccccc1",
    "CLASS_NAME": "False"
  },
  {
    "MOLECULE": "COC(=O)CC(=O)OC",
    "CLASS_NAME": "False"
  },
  {
    "MOLECULE": "CC1(C)C(=O)N(Br)C(=O)N1Br",
    "CLASS_NAME": "False"
  },
  {
    "MOLECULE": "CCOC(=O)COc1ccc2c(c1)CC(NCC(O)c1cccc(Cl)c1)CC2 (configuration not stated)",
    "CLASS_NAME": "True"
  },
  {
    "MOLECULE": "CC[C@H]1OC(=O)[C@H](C)[C@@H](O[C@H]2C[C@@](C)(OC)[C@@H](O)[C@H](C)O2)[C@H](C)[C@@H](O[C@@H]2O[C@H](C)C[C@H](N(C)C)[C@H]2O)[C@](C)(O)C[C@@H](C)C(=O)[C@H](C)[C@@H](O)[C@]1(C)O",
    "CLASS_NAME": "False"
  },
  {
    "MOLECULE": "Nc1cccc(N)c1",
    "CLASS_NAME": "False"
  },
  {
    "MOLECULE": "CCc1cc(SCc2sc(-c3ccc(C(F)(F)F)cc3)nc2CN2CCN(c3ccc(OC)cc3)CC2)ccc1OCC(=O)O",
    "CLASS_NAME": "True"
  },
  {
    "MOLECULE": "COCCOCCOCCOC",
    "CLASS_NAME": "False"
  },
  {
    "MOLECULE": "CC(O)CN(CCN(CC(C)O)CC(C)O)CC(C)O (configuration not stated)",
    "CLASS_NAME": "False"
  },
  {
    "MOLECULE": "CCOCCO",
    "CLASS_NAME": "False"
  },
  {
    "MOLECULE": "Cc1ccc(S(=O)(=O)O)cc1C",
    "CLASS_NAME": "False"
  },
  {
    "MOLECULE": "CCOc1cccc(-n2cc(C(=O)N3CCN(c4cc(C(=O)O)c5ccccc5c4)CC3)nc2-c2ccc(C)cc2)c1",
    "CLASS_NAME": "True"
  },
  {
    "MOLECULE": "COc1ccc(-n2nc(C(F)F)cc2-c2ccc(S(C)=O)cc2)cc1 (configuration not stated)",
    "CLASS_NAME": "False"
  },
  {
    "MOLECULE": "CC(C)CCO",
    "CLASS_NAME": "False"
  },
  {
    "MOLECULE": "CNS(=O)(=O)c1cc(C(=O)N2CCC(CCN3C4CCC3CC(n3c(C)nc5ccccc53)C4)(c3cccc(F)c3)CC2)c(Cl)cc1F (configuration not stated)",
    "CLASS_NAME": "True"
  },
  {
    "MOLECULE": "Cn1c(=O)cc(Oc2ccc(F)cc2F)c2cnc(NCC(C)(C)O)nc21",
    "CLASS_NAME": "True"
  },
  {
    "MOLECULE": "CC(C)=CCCC(C)=CC=O",
    "CLASS_NAME": "True"
  },
  {
    "MOLECULE": "NC(=O)NO",
    "CLASS_NAME": "False"
  },
  {
    "MOLECULE": "CCN(C(=O)c1cc(C)cc(OC[C@H](C)Nc2ccncc2)c1)C(C)C",
    "CLASS_NAME": "False"
  },
  {
    "MOLECULE": "Cc1[nH]cnc1C[C@H]1CCc2c(C)c3ccccc3n2C1=O",
    "CLASS_NAME": "True"
  },
  {
    "MOLECULE": "CCOC(=O)CC(CC(=O)OCC)(OC(C)=O)C(=O)OCC",
    "CLASS_NAME": "False"
  },
  {
    "MOLECULE": "COc1ccc2sc(C(=O)Nc3nnn[nH]3)c(OC(C)C)c2c1",
    "CLASS_NAME": "False"
  },
  {
    "MOLECULE": "COC(=O)c1c(Cl)c(Cl)c(C(=O)OC)c(Cl)c1Cl",
    "CLASS_NAME": "False"
  },
  {
    "MOLECULE": "CCCCCCc1ccc(O)cc1O",
    "CLASS_NAME": "True"
  },
  {
    "MOLECULE": "O=C(O)CCN(C1(C(=O)NO)CCCC1)S(=O)(=O)c1ccc(Oc2ccc(F)cc2)cc1",
    "CLASS_NAME": "False"
  },
  {
    "MOLECULE": "Oc1ccc2c(c1)-c1ccccc1C2",
    "CLASS_NAME": "True"
  },
  {
    "MOLECULE": "O=C1CCC(N2C(=O)c3ccccc3C2=O)C(=O)N1 (configuration not stated)",
    "CLASS_NAME": "False"
  },
  {
    "MOLECULE": "Cc1ccc(N)cc1O",
    "CLASS_NAME": "False"
  },
  {
    "MOLECULE": "CC[C@H](C)C(=O)O[C@H]1C[C@@H](C)C=C2C=C[C@H](C)[C@H](CC[C@@H]3C[C@@H](O)CC(=O)O3)[C@H]21",
    "CLASS_NAME": "False"
  }
]
